Assay: BSK_hDFCGF_Proliferation: Cell Proliferation Assessment in the BioMAP Diversity Plus: hDFCGF Assay (AID 2283059);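 further: curves fitted for both rise and fall of signal versus DMSO baseline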
Conditions: primary human foreskin fibroblasts
Calls of active or inactive are those of the source. How the source made its calls: active means hit-call score of the fitted dose curve at least 0.9, where 1 is the maximum; inactive means score below 0.9.
Your reply should match one of these outcome classes. active, inactive

Solved entries:
compound	cat
COP(=O)(OC)C(O)C(Cl)(Cl)Cl (stereo unspecified)	inactive
CCOP(=S)(OCC)OC(Cl)C(Cl)(Cl)Cl (stereo unspecified)	inactive
CC(C1CC1)C(O)(Cn1cncn1)c1ccc(Cl)cc1 (stereo unspecified)	active
CC(COc1ccc(Oc2ccccc2)cc1)Oc1ccccn1 (stereo unspecified)	active
CCc1cccc(CC)c1N(COC)C(=O)CCl	active

Per the records of this test, what outcome belongs to CCCCOC(=O)[C@@H](C)Oc1ccc(Oc2ccc(C#N)cc2F)cc1 ?
inactive

---

Read-out: Ezrin (EZR), EZR (gene 7430)
Assay: LTEA_HepaRG_EZR: Life Technologies and Expression Analysis (LTEA) Assay for Ezrin (EZR) using HepaRG (AID 2283491)
Conditions: mRNA level, 48 h; actives raise or lower the signal
Activity calls are given as the source filed them. How the source made its calls: active means hit-call score of the fitted dose curve at least 0.9, where 1 is the maximum; inactive means score below 0.9.
Your reply should match one of these outcome classes. active, inactive

Solved entries:
molecule	cat
CSC1=N[C@@](C)(c2ccccc2)C(=O)N1Nc1ccccc1	active
COP(=O)(OC)C(O)C(Cl)(Cl)Cl (stereo not drawn)	inactive
CCC(=NOC/C=C/Cl)C1=C(O)CC(C2CCOCC2)CC1=O (stereo not drawn)	inactive
CC(C)[C@H](C(=O)O[C@H](C#N)c1cccc(Oc2ccccc2)c1)c1ccc(Cl)cc1	inactive
C[Si](Cn1cncn1)(c1ccc(F)cc1)c1ccc(F)cc1	inactive

Per the records of this test, what outcome belongs to C=C(C)[C@H]1Cc2c(ccc3c2O[C@@H]2COc4cc(OC)c(OC)cc4[C@@H]2C3=O)O1 ?
active

Per the records of this test, what outcome belongs to CCOP(=S)(OCC)SCCSCC ?
inactive

Per the records of this test, what outcome belongs to CCOP(=S)(OCC)Oc1cc(C)nc(C(C)C)n1 ?
inactive

---

Assay: BSK_SAg_PBMCCytotoxicity: PBMC Cytotoxicity Assessment in the BioMAP Diversity Plus: SAg Assay (AID 2283093);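 further: PBMC viability measured as Alamar Blue reduction fluorescence at 546/580 nm; fitted both ways against DMSO so a hit may be loss or gain of signal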
Conditions: primary human HUVEC with PBMC
Activity calls are given as the source filed them. Rule for the calls: active = hit-call score of the fitted dose curve at least 0.9, where 1 is the maximum; inactive = score below 0.9.
Your reply should match one of these outcome classes. 1.0 (active), 0.0 (inactive)

Solved entries:
compound	cat
CCOP(=S)(OCC)SCCSCC	0.0
CCCCOC(=O)[C@@H](C)Oc1ccc(Oc2ccc(C#N)cc2F)cc1	0.0
N#CSCSC#N	1.0
CC(Oc1cccc(Cl)c1)C(=O)O (stereo not drawn)	0.0
Nc1c(Cl)cc([N+](=O)[O-])cc1Cl	0.0
CNC(=O)ON=C(C)SC	0.0

Continue with the compound presented below.
Per the records of this test, what outcome belongs to C#CC(C)(C)NC(=O)c1cc(Cl)cc(Cl)c1 ?
0.0

---

Assay: ATG_NFI_CIS: Attagene CIS-FACTORIAL HepG2 Assay for human Nuclear Factor I (NFI) (AID 2282989)
Conditions: HepG2 cis-regulatory reporter, NFI response element transcription; actives raise or lower the signal
Calls of active or inactive are those of the source. How the source made its calls: active means hit-call score of the fitted dose curve at least 0.9, where 1 is the maximum; inactive means score below 0.9.
Your reply should match one of these outcome classes. YES for active, NO for inactive

Solved entries:
compound	cat
Nc1nc(N)nc(NC2CC2)n1	NO
CC(C)N(C(=O)SCC(Cl)=C(Cl)Cl)C(C)C	NO
COc1cccc(C(=O)NN(C(=O)c2cc(C)cc(C)c2)C(C)(C)C)c1C	NO

Per the records of this test, what outcome belongs to CC(C1CC1)C(O)(Cn1cncn1)c1ccc(Cl)cc1 (stereo unspecified) ?
NO

Per the records of this test, what outcome belongs to Nc1c(Cl)cc([N+](=O)[O-])cc1Cl ?
YES

Per the records of this test, what outcome belongs to CCCOc1nn(C(=O)NS(=O)(=O)c2ccccc2C(=O)OC)c(=O)n1C ?
NO
